The reader will find reported pKi values listed item by item below.
Target: 5-hydroxytryptamine receptor 7 (Homo sapiens, UniProt P34969)
Sequence (P34969 whole entry): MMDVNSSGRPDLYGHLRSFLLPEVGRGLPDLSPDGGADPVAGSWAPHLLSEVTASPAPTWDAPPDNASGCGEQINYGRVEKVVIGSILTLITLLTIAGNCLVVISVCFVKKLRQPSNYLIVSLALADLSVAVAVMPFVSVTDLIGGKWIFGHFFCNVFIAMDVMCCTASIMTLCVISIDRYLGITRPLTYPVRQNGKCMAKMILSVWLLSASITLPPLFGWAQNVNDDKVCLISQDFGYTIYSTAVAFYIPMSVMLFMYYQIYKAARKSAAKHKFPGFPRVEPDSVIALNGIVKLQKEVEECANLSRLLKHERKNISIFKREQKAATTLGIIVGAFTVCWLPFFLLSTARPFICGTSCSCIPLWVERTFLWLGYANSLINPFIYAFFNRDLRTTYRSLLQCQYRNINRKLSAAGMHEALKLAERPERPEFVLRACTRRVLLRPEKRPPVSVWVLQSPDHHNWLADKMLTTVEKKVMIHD
Assay: Displacement of [3H]-5-CT from cloned human 5HT7B receptor expressed in HEK293 cells after 1 hr by scintillation counting
Format: cell-based
pKi: −log10 of the molar value.
measure.name: pKi

INSERT INTO measurements (input_smiles, measure_name, measured_result) VALUES
  ('CN(C)CCc1cn(-c2cccc3ccccc23)c2ccccc12', 'pKi', 6.19),
  ('Cc1cccc(-n2cc(CCN(C)C)c3ccccc32)c1C', 'pKi', 6.50),
  ('Cc1ccccc1-n1cc(CCN(C)C)c2ccccc21', 'pKi', 6.55),
  ('CN(C)CCc1cn(-c2ccccc2)c2ccccc12', 'pKi', 5.92);
